system under test: Gag-Pol polyprotein (Human immunodeficiency virus type 1 group M subtype B (isolate HXB2))
method description: RNase H inhibition, HIV 1 Gag Pol polyprotein, FRET biochemical assay, screening (AID 372)
stated conditions: HIV-1 RT RNase H, FRET RNA/DNA substrate fluorescence; at 10 µM; stronger effect = higher value
Out of some 100,000 compounds screened, about 770 (0.77%) were called active. This is one part of a sample in which actives are shown more often than they occur.
The entries below come with measured inhibition values attached.
Kindly provide the numeric value in % only, without the unit symbol.

// worked examples, inhibition included
CC(=O)c1ccc(NS(=O)(=O)c2cccc(S(=O)(=O)c3ccc(Cl)c(Cl)c3)c2)cc1 : 10
CCOc1ccc(N2C(=O)/C(=C/c3ccc(OCc4cccc(C(=O)O)c4)cc3)C(=O)NC2=S)cc1 : 5
CC(=O)N1CCN(C2=NC(=O)/C(=C/c3ccc(O)cc3)S2)CC1 : 10

Now for a further compound.
What value of measured inhibition is listed for COc1ccc2oc(=O)c(C(=O)Nc3cccc(Cl)c3)cc2c1 ? 5

###

system under test: Gag-Pol polyprotein (Human immunodeficiency virus type 1 group M subtype B (isolate HXB2)) (UniProt P04585)
method description: RNase H inhibition, HIV 1 Gag Pol polyprotein, FRET biochemical assay, screening (AID 372)
stated conditions: HIV-1 RT RNase H, FRET RNA/DNA substrate fluorescence; at 10 µM; stronger effect = higher value
Screen size: about 100,000 compounds; about 770 (0.77%) were called active. This excerpt belongs to a sample that is enriched for actives.
inhibition of 8% or higher: T. Under 8%: F.

Reference set (5 entries):
COc1ccc(C2CC(=O)C3=C(C2)NC(C)=C(C(=O)OCc2ccccc2)C3c2cc(OC)c(OC)c(OC)c2)cc1 (configuration not stated) : T
Cc1ccc(N=Cc2ccco2)c(C)c1 : T
O=C1C(=O)N(c2ccc(Br)cn2)C(c2ccccc2[N+](=O)[O-])/C1=C(/O)c1ccccc1 (configuration not stated) : F
CC(CCC(=O)Nc1ccc(F)cc1)CC(=O)Nc1ccc(F)cc1 (configuration not stated) : F
COc1cc([N+](=O)[O-])ccc1NC(=S)NC(=O)c1ccccc1 : F

Now let's try a different one.
Tell me whether inhibition is at least 8% here: Cc1ccc(C(=O)c2cccc(C(=O)c3ccc(C)cc3)c2)cc1 F

###

system under test: Gag-Pol polyprotein (Human immunodeficiency virus type 1 group M subtype B (isolate HXB2)) (UniProt P04585)
method description: RNase H inhibition, HIV 1 Gag Pol polyprotein, FRET biochemical assay, screening (AID 372)
stated conditions: HIV-1 RT RNase H, FRET RNA/DNA substrate fluorescence; at 10 µM
Hit rate of the full screen: of about 100,000 compounds, about 770 (0.77%) were called active. Rule as the data show it: active = inhibition above about 50%; inactive = the rest. The full list was thinned out, with actives kept by preference.
# output must be one of yes for active, no for inactive

Reference set (5 entries):
COc1ccc(/C=N/c2sc(C)c(C)c2C#N)cc1 : no
COc1cc(C=C2C(=O)N(C)C(=O)N(C)C2=O)ccc1OCCOc1ccc(C)cc1 : no
O=C(N/N=C/c1ccncc1)c1cccc(I)c1 : no
Cc1cc2c(cc1C)CN(c1cccc(C(=O)N/N=C/c3ccco3)c1)C2 : no
Cc1ccc2nc(-c3ccc(C)c(NC(=S)NC(=O)c4cccc(F)c4)c3)oc2c1 : yes

Kindly provide the recorded test outcome for the following compound: NC(=O)c1c(/N=C/c2cc(Cl)cc(Cl)c2O)sc2c1CCCC2 no

What about this compound? Cc1cc(C)c(S(=O)(=O)Nc2cc(Br)c(O)c3ccccc23)c(C)c1 no

What about this compound? O=C(O)C1CCCCC1C(=O)NCc1ccccc1 (stereo not given) no

What about this compound? O=C(N/N=C/c1ccc(/C=N/NC(=O)c2cccc(I)c2)cc1)c1cccc(I)c1 yes

What about this compound? CC1=C(C(=O)OCc2ccccc2)C(c2ccccc2Br)C2=C(CC(c3ccccc3)CC2=O)N1 (stereo not given) no

What about this compound? CC(C)Cc1nnc(NC(=O)c2ccccc2I)s1 no

What about this compound? COc1ccc(OC)c(C2NC(=S)NC(C)=C2C(=O)Nc2ccc(C)c(Cl)c2)c1 (stereo not given) no

What about this compound? CCOc1ccc2nc(SCc3ccc(OC)c(F)c3)sc2c1 no

What about this compound? Cc1ccc(C(=O)N2CCc3ccccc32)cc1[N+](=O)[O-] no

What about this compound? Cc1cc2c(cc1C)CN(c1cccc(C(=O)N/N=C/c3ccc(N(C)C)cc3)c1)C2 no

What about this compound? CC1=C(C(=O)OCCc2ccccc2)C(c2ccccc2Br)C2=C(CC(c3ccccc3)CC2=O)N1 (stereo not given) no

What about this compound? COc1cc(-c2nc3ccccn3c2/N=C/c2cccc([N+](=O)[O-])c2)ccc1O no

What about this compound? Cc1cccc(/C=N/NC(=O)c2ccc(O)c(O)c2)c1 yes

What about this compound? COc1cccc(/C=N/NC(=O)c2ccccc2O)c1 no

What about this compound? O=C(COC(=O)c1cc(-c2ccccc2)nc2ccc(Cl)cc12)c1ccc([N+](=O)[O-])cc1 no

What about this compound? O=C1NC(=Nc2ccc(O)cc2)S/C1=C\c1ccc([N+](=O)[O-])cc1 no

What about this compound? O=C(COc1cccc(Br)c1)N/N=C/c1ccc(Cl)cc1 no

What about this compound? CC(C)OC(=O)c1ccc(NC(=O)c2ccc(Br)cc2)cc1 no

What about this compound? COc1ccc(C(=O)NC(=S)Nc2ccc(-c3nc4cc(C)ccc4o3)c(O)c2)cc1 no

###

system under test: Gag-Pol polyprotein (Human immunodeficiency virus type 1 group M subtype B (isolate HXB2)) (UniProt P04585)
method description: RNase H inhibition, HIV 1 Gag Pol polyprotein, FRET biochemical assay, screening (AID 372)
stated conditions: HIV-1 RT RNase H, FRET RNA/DNA substrate fluorescence; at 10 µM; stronger effect = higher value
The campaign covered roughly 100,000 compounds. About 770 (0.77%) were called active. Only a selection was taken, and actives are over-represented in it overall.
The entries below come with measured inhibition values attached.
Kindly provide the numeric value in % only, without the unit symbol.

// worked examples, inhibition included
Oc1ccccc1N=Cc1c(O)c(I)cc2oc3c(c12)CCCC3 : 14
N#C/C(=C\c1cccc([N+](=O)[O-])c1)c1nc(-c2cc3cc([N+](=O)[O-])ccc3oc2=O)cs1 : 7
CCOc1ccc(N(CC(=O)NCCSCc2ccccc2)S(=O)(=O)c2ccccc2)cc1 : 10

What value of measured inhibition is listed for N#C/C(=C\c1cccc([N+](=O)[O-])c1)c1nc(-c2cccc([N+](=O)[O-])c2)cs1 ? 6

###

system under test: Gag-Pol polyprotein (Human immunodeficiency virus type 1 group M subtype B (isolate HXB2))
method description: RNase H inhibition, HIV 1 Gag Pol polyprotein, FRET biochemical assay, screening (AID 372)
stated conditions: HIV-1 RT RNase H, FRET RNA/DNA substrate fluorescence; at 10 µM
Among all 100,000 compounds or so, about 770 (0.77%) were called active. Cut-off read from the data, not from the text of the source: active = inhibition above about 50%; inactive = the rest. The list comes from a sample in which actives are over-represented; it also holds close analogues and randomly drawn compounds.
# output must be one of y = active, n = inactive

Reference set (5 entries):
C/C(=N/NC(=O)c1ccc2c(c1)OCO2)c1ccc(Br)s1 : n
COc1cccc(C=C2C(=O)c3ccccc3C2=O)c1 : n
COc1ccc(C(=O)Nc2ccc3oc(-c4ccccc4)nc3c2)cc1Cl : n
O=c1c(O)c(-c2ccc3c(c2)OCO3)oc2ccccc12 : n
CC(=O)c1cccc(-c2ccc(/C=C3\C(=O)NC(=O)C(C#N)=C3C)o2)c1 : n

Kindly provide the recorded test outcome for the following molecule: CCc1c(C)sc(NC(=O)c2ccc(OC)c(OC)c2)c1C(=O)OC n

What about this molecule? CCOc1ccc(C(=O)NC(=S)Nc2ccc(Cl)c(-c3nc4ccc(C)cc4o3)c2)cc1Cl n

What about this molecule? Cc1cccc(C)c1OCCOc1ccc(C=C2C(=O)NC(=S)NC2=O)cc1 n

What about this molecule? Nc1nnc(SCC(=O)Nc2ccccc2-c2ccccc2)s1 n

What about this molecule? CCOC(=O)c1c(NC(C)=O)sc2c1CCN(C(=O)OCC)C2 n

###

system under test: Gag-Pol polyprotein (Human immunodeficiency virus type 1 group M subtype B (isolate HXB2))
method description: RNase H inhibition, HIV 1 Gag Pol polyprotein, FRET biochemical assay, screening (AID 372)
stated conditions: HIV-1 RT RNase H, FRET RNA/DNA substrate fluorescence; at 10 µM; stronger effect = higher value
Among all 100,000 compounds or so, about 770 (0.77%) were called active. What follows is part of a selection rich in actives, with near analogues and random picks from the rest.
The entries below come with measured inhibition values attached.
Kindly provide the numeric value in % only, without the unit symbol.

// worked examples, inhibition included
COc1cc(C(=S)N2CCCCC2)cc(Br)c1O : 37
COc1cc(C(=S)N2CCC(C)CC2)ccc1O : 7

What value of measured inhibition is listed for CCOc1cc(C(=S)N2CCC(C)CC2)ccc1O ? 50

What about this molecule? O=C(COc1ccc(Cl)cc1Cl)n1cc([N+](=O)[O-])cn1 6

What about this molecule? O=C(Nc1ccc(I)cn1)C12CC3CC(CC(C3)C1)C2 7

What about this molecule? O=C(Nc1ccc(Cl)cc1)Nc1ccc(-c2ccc(NC(=O)Nc3ccc(Cl)cc3)cc2)cc1 57
